Where these numbers come from: paper PMC11796317

molecular target: PaIspD (Pseudomonas aeruginosa); construct: His6 (N, cleaved yes); made in house; host or cells: Escherichia coli BL21 (DE3), pET28; experiment: Microscale thermophoresis (MST) with dyed PaIspD; type: binding; conditions: supplement sheet, PUBLISHED VALUES
Entries annotated with measured LLE
Just the number, please, no unit after it.

>>> obs_value("CCC(CC)C(=O)N(C)C1c2cccnc2C(=O)N1C (stereo not shown)")
-0.9347
>>> obs_value("CN(C(=O)c1ccncc1)C1c2cccnc2C(=O)N1C (stereo not shown)")
-0.6357

So for CN1CCC(N2Cc3cccnc3C2=O)CC1 , the logged LLE turned out to be -0.7773

So for O=C1c2ncccc2CN1CCN1CCOCC1 , the logged LLE turned out to be -0.7374

So for O=C1c2ncccc2CN1CCc1c[nH]c2ccccc12 , the logged LLE turned out to be -0.7939

So for CN(C(=O)c1ccon1)C1c2cccnc2C(=O)N1C (stereo not shown) , the logged LLE turned out to be -0.6167

So for O=C1c2ncccc2CN1Cc1ccccc1 , the logged LLE turned out to be -0.9699

So for COC(=O)N(C)C1c2cccnc2C(=O)N1C (stereo not shown) , the logged LLE turned out to be -0.728

So for CN1Cc2cccnc2C1=O , the logged LLE turned out to be -1.358

So for CN1C(=O)c2ncccc2C1N(C)C(=O)N1CCOCC1 (stereo not shown) , the logged LLE turned out to be -0.5431

----------
Molecular target: PaIspD (Pseudomonas aeruginosa)
Construct: His6 (N, cleaved yes); made in house; host or cells: Escherichia coli BL21 (DE3), pET28
Sequence (P57707 1-234): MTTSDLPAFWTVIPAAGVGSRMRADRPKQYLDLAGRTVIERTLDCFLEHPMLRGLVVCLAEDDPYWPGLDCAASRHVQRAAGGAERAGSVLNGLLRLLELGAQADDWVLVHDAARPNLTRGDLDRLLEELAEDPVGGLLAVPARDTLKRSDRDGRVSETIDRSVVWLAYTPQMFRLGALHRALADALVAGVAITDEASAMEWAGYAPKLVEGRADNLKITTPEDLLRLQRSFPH
Test: Microscale thermophoresis (MST) with dyed PaIspD
Assay type: binding
Settings: kd (µM), supplement sheet, CORRECTED VALUES; MST Kd
Entries annotated with measured Kd
Respond numerically; units are µM and should not be typed.

Examples from the recorded data:
>>> obs_value("O=C1c2ncccc2CN1Cc1ccccc1 [Compound 4]")
133
>>> obs_value("CN1Cc2cccnc2C1=O [Compound 2]")
939
>>> obs_value("CN1C(=O)c2ncccc2C1N(C)C(=O)N1CCOCC1 (stereo not shown) [Compound 12]")
239

So for CN1CCC(N2Cc3cccnc3C2=O)CC1 [Compound 3] , the logged Kd turned out to be 186

----------
target: PaIspD (Pseudomonas aeruginosa, UniProt P57707); construct: His6 (N, cleaved yes); made in house; host or cells: Escherichia coli BL21 (DE3), pET28; assay: Microscale thermophoresis (MST) with dyed PaIspD; assay type: binding; conditions: -log KD, supplement sheet, PUBLISHED VALUES
Entries annotated with measured Kd
Respond numerically; units are µM and should not be typed.

Examples from the recorded data:
>>> obs_value("O=C1c2ncccc2CN1CCc1c[nH]c2ccccc12")
208
>>> obs_value("CN1CCC(N2Cc3cccnc3C2=O)CC1")
186
>>> obs_value("CCC(CC)C(=O)N(C)C1c2cccnc2C(=O)N1C (stereo not shown)")
536
>>> obs_value("O=C1c2ncccc2CN1Cc1ccccc1")
133
>>> obs_value("COC(=O)N(C)C1c2cccnc2C(=O)N1C (stereo not shown)")
454
>>> obs_value("CN(C(=O)c1ccncc1)C1c2cccnc2C(=O)N1C (stereo not shown)")
209
>>> obs_value("O=C1c2ncccc2CN1CCN1CCOCC1")
491
>>> obs_value("CN1Cc2cccnc2C1=O")
939
>>> obs_value("CN(C(=O)c1ccon1)C1c2cccnc2C(=O)N1C (stereo not shown)")
502

// switching to the query compound
So for CN1C(=O)c2ncccc2C1N(C)C(=O)N1CCOCC1 (stereo not shown) , the logged Kd turned out to be 239
